- Target: T1, alpha-s1 casein from Bos taurus
- T1 chain: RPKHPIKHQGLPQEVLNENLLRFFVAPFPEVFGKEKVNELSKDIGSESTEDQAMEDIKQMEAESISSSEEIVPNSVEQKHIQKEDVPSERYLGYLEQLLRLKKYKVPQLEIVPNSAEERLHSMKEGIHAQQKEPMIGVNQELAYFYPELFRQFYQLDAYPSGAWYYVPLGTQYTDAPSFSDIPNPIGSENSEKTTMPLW
Measured metric: αs1-I CN, 6 hours, 11° C. (Volume)
Numeric answer only, unit Volume assumed.

bovine chymosin B variant #6 (K221M) (protein) GEVASVPLTNYLDSQYFGKIYLGTPPQEFTVLFDTGSSDFWVPSIYCKSNACKNHQRFDPRKSSTFQNLGKPLSIHYGTGSMQGILGYDTVTVSNIVDIQQTVGLSTQEPGDVFTYAEFDGILGMAYPSLASEYSIPVFDNMMNRHLVAQDLFSVYMDRNGQESMLTLGAIDPSYYTGSLHWVPVTVQQYWQFTVDSVTISGVVVACEGGCQAILDTGTSMLVGPSSDILNIQQAIGATQNQYGEFDIDCDNLSYMPTVVFEINGKMYPLTPSAYTSQDQGFCTSGFQSENHSQKWILGDVFIREYYSVFDRANNLVGLAKAI : 1.89e+07

Query: Consider the protein shown here: camel chymosin variant #137 (F223D) (protein) GKVAREPLTSYLDSQYFGKIYIGTPPQEFTVVFDTGSSDLWVPSIYCKSNVCKNHHRFDPRKSSTFRNLGKPLSIHYGTGSMEGFLGYDTVTVSNIVDPNQTVGLSTEQPGEVFTYSEFDGILGLAYPSLASEYSVPVFDNMMDRHLVARDLFSVYMDRNGQGSMLTLGAIDPSYYTGSLHWVPVTLQQYWQFTVDSVTINGVAVACVGGCQAILDTGTSVLDGPSSDILKIQMAIGATENRYGEFDVNCGNLRSMPTVVFEINGRDYPLSPSAYTSKDQGFCTSGFQGDNNSELWILGDVFIREYYSVFDRANNRVGLAKAI What is its recorded αs1-I CN, 6 hours, 11° C.?
Response: 2.26e+07

Data credit: patent US20150140169
